Reported IC50 is given for each of the following compounds.
Biological target: PCSK9 (Homo sapiens)
Sequence (Q8NBP7 153-692): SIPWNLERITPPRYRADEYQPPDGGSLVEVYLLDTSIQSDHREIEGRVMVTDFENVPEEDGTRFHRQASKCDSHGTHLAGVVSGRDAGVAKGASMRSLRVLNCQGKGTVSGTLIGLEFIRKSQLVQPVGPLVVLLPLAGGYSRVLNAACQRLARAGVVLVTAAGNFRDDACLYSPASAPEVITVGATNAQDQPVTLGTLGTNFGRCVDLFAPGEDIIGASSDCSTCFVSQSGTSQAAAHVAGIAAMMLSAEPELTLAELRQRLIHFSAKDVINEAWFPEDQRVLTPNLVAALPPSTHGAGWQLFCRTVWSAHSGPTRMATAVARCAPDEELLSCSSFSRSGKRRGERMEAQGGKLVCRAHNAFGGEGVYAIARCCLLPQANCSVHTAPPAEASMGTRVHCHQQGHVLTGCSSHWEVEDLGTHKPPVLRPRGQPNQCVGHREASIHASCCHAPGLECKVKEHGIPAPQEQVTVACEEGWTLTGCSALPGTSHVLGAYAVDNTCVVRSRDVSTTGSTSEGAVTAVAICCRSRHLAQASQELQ
Sequence (Q8NBP7 31-152 partner limits assumed): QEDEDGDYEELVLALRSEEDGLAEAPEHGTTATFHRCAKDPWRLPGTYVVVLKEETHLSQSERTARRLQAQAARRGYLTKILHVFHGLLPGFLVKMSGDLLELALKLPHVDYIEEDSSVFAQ
Assay: PCSK9/EGF(A) TR-FRET binding assay
Conditions: TR-FRET; Table 8E, additional compounds; read-out: PCSK9/EGF(A) IC50
Numbered stars: 1 amine (or outer) side, 2 acyl side, 3 side chain; on linkers, the order of the positions; unused ones are H or OH. Square brackets hold non-standard residues; d marks the D form. Peptide text beside a SMILES is read from it. * marks the point of attachment. Propanoyl(3-(4-MeO-Ph)) = COc1ccc(CCC(=O)*)cc1; X14 = O=C(CC1CCN([*:1])CC1)[*:2]; Cbz = O=C(OCc1ccccc1)*; GABA = NCCCC(=O)O; Ms = CS(=O)(=O)*

Assign IC50 to the following record: CC[C@H](C)[C@H](NC(=O)[C@H](CCCNC(=N)N)NC(=O)[C@@H](NC(=O)[C@H](CC(C)C)NC(=O)[C@H](CC(N)=O)NC(=O)[C@H](Cc1c[nH]c2ccccc12)NC(=O)CCc1ccc(OC)cc1)C(C)C)C(=O)NCC(=O)N[C@@H](CC(C)C)C(=O)N[C@H](C(=O)N[C@@H](CCCNC(=N)N)C(N)=O)[C@@H](C)O [Compound 166] ({Propanoyl(3-(4-MeO-Ph))}-WNLVRIGLTR-NH2)
≥ 50 µM

Let me know recorded IC50 for CC[C@H](C)[C@H](NC(=O)[C@H](CCCNC(=N)N)NC(=O)[C@@H](NC(=O)[C@H](CC(C)C)NC(=O)[C@H](CC(N)=O)NC(=O)[C@H](Cc1c[nH]c2ccccc12)NC(=O)CCCNC(=O)OCc1ccccc1)C(C)C)C(=O)NCC(=O)N[C@@H](CC(C)C)C(=O)N[C@H](C(=O)N[C@@H](CCCNC(=N)N)C(N)=O)[C@@H](C)O [Compound 169] ({Cbz-GABA}-WNLVRIGLTR-NH2) , thanks.
≥ 50 µM

For CC[C@H](C)[C@H](NC(=O)[C@H](CCCNC(=N)N)NC(=O)[C@@H](NC(=O)[C@H](CC(C)C)NC(=O)[C@H](CC(N)=O)NC(=O)[C@H](Cc1c[nH]c2ccccc12)NC(=O)CC1CCN(S(C)(=O)=O)CC1)C(C)C)C(=O)NCC(=O)N[C@@H](CC(C)C)C(=O)N[C@@H](CC(C)C)C(=O)N[C@@H](CCCNC(=N)N)C(N)=O [Compound 133] (Ms-[X14]WNLVRIGLLR-NH2) , write its IC50.
≥ 50 µM
